- TESTED ON: Prothrombin (Homo sapiens, UniProt P00734)
- ASSAY DETAILS: Inhibition of human recombinant C-terminal 10-His-tagged thrombin (M1 to E622 residues) expressed in mouse NS0 cells using BOC-VPR-AMC as substrate incubated for 40 mins by FLINT assay
pIC50: −log10 of the molar value.
VALUE TYPE: pIC50

>  <MOLECULE>
N=C(N)c1ccc(C2Cc3ccccc3B(O)O2)cc1OCc1cccnc1 (racemic)

>  <VALUE TYPE>
pIC50

>  <NUMBER>
5.60

$$$$
>  <MOLECULE>
N=C(N)c1ccc(C2Cc3cc(Cl)c(F)cc3B(O)O2)cc1OCc1cccnc1 (racemic)

>  <VALUE TYPE>
pIC50

>  <NUMBER>
5.70

$$$$
>  <MOLECULE>
Cc1ccc2c(c1)C(Cc1ccc(C(=N)N)c(OCc3cccnc3)c1)OB2O (racemic)

>  <VALUE TYPE>
pIC50

>  <NUMBER>
5.20

$$$$
>  <MOLECULE>
N=C(N)c1ccc(CC2OB(O)c3ccc(F)cc32)cc1OCc1cccnc1 (racemic)

>  <VALUE TYPE>
pIC50

>  <NUMBER>
4.80

$$$$
>  <MOLECULE>
N=C(N)c1ccc(CC2OB(O)c3ccccc32)cc1OCc1cccnc1 (racemic)

>  <VALUE TYPE>
pIC50

>  <NUMBER>
5.00

$$$$
>  <MOLECULE>
N=C(N)c1ccc(CC2OB(O)c3cc(F)ccc32)cc1OCc1cccnc1 (racemic)

>  <VALUE TYPE>
pIC50

>  <NUMBER>
5.70

$$$$

----------
- TESTED ON: Kallikrein-1 (Homo sapiens)
- ASSAY DETAILS: Inhibition of human recombinant N-terminal His-tagged and enterokinase cleavage site-fused KLK1 (19 to 262 residues) expressed in baculovirus infected Sf9 insect cells using R110 labelled GSK3162232A as substrate measured at 30 secs interval for 5 mins by FLINT assay

>  <COMPOUND>
N=C(N)c1ccc(C2Cc3ccccc3B(O)O2)cc1OCc1ccccc1Cl (racemic)

>  <READOUT RELATION>
=

>  <IC50 (µM)>
0.631

$$$$
>  <COMPOUND>
N=C(N)c1ccc(CC2OB(O)c3ccccc32)cc1OCc1cccnc1 (racemic)

>  <READOUT RELATION>
=

>  <IC50 (µM)>
316

$$$$
>  <COMPOUND>
N=C(N)c1ccc(COc2ccc3c(c2)COB3O)cc1

>  <READOUT RELATION>
=

>  <IC50 (µM)>
158

$$$$
>  <COMPOUND>
Cc1cccc2c1B(O)OC(c1ccc(C(=N)N)c(OCc3cccnc3)c1)C2 (racemic)

>  <READOUT RELATION>
>

>  <IC50 (µM)>
10

$$$$
>  <COMPOUND>
N=C(N)c1ccc(CNc2cccc3c2B(O)OC3)cc1

>  <READOUT RELATION>
=

>  <IC50 (µM)>
7.94

$$$$

----------
- TESTED ON: Urokinase-type plasminogen activator (Homo sapiens)
- ASSAY DETAILS: Inhibition of recombinant human C-terminal 10-His-tagged urokinase (M1 to L431 residues) expressed in mouse NS0 cells using Z-GGR-AMC as substrate incubated for 40 mins by FLINT assay
pIC50: −log10 of the molar value.
VALUE TYPE: pIC50

>  <MOLECULE>
N=C(N)c1ccc(C2Cc3ccc(C(F)(F)F)cc3B(O)O2)cc1OCc1cccnc1 (racemic)

>  <TESTED ON>
Urokinase-type plasminogen activator (Homo sapiens)

>  <READOUT RELATION>
=

>  <NUMBER>
4.90

$$$$
>  <MOLECULE>
Cl.N=C(N)c1ccc([C@H]2Cc3ccc(C(F)(F)F)cc3B(O)O2)cc1OCc1cccnc1

>  <TESTED ON>
Urokinase-type plasminogen activator (Homo sapiens)

>  <READOUT RELATION>
=

>  <NUMBER>
5.10

$$$$
>  <MOLECULE>
N=C(N)c1ccc(CC2OB(O)c3ccccc32)cc1OCc1cccnc1 (racemic)

>  <TESTED ON>
Urokinase-type plasminogen activator (Homo sapiens)

>  <READOUT RELATION>
=

>  <NUMBER>
4.10

$$$$
>  <MOLECULE>
Cc1cccc2c1B(O)OC(c1ccc(C(=N)N)c(OCc3cccnc3)c1)C2 (racemic)

>  <TESTED ON>
Urokinase-type plasminogen activator (Homo sapiens)

>  <READOUT RELATION>
=

>  <NUMBER>
5.30

$$$$
>  <MOLECULE>
N=C(N)c1ccc(C2Cc3cc(Cl)c(F)cc3B(O)O2)cc1OCc1cccnc1 (racemic)

>  <TESTED ON>
Urokinase-type plasminogen activator (Homo sapiens)

>  <READOUT RELATION>
=

>  <NUMBER>
4.10

$$$$
>  <MOLECULE>
N=C(N)c1ccc(C2Cc3ccccc3B(O)O2)cc1OCc1cccc(Cl)c1 (racemic)

>  <TESTED ON>
Urokinase-type plasminogen activator (Homo sapiens)

>  <READOUT RELATION>
=

>  <NUMBER>
7.20

$$$$
>  <MOLECULE>
N=C(N)c1ccc(C2Cc3ccccc3B(O)O2)cc1OCc1ccccc1Cl (racemic)

>  <TESTED ON>
Urokinase-type plasminogen activator (Homo sapiens)

>  <READOUT RELATION>
=

>  <NUMBER>
4.30

$$$$
>  <MOLECULE>
Cc1ccc2c(c1)C(Cc1ccc(C(=N)N)c(OCc3cccnc3)c1)OB2O (racemic)

>  <TESTED ON>
Urokinase-type plasminogen activator (Homo sapiens)

>  <READOUT RELATION>
<

>  <NUMBER>
4.00

$$$$
>  <MOLECULE>
COc1ccc2c(c1)C(Cc1ccc(C(=N)N)c(OCc3cccnc3)c1)OB2O (racemic)

>  <TESTED ON>
Urokinase-type plasminogen activator (Homo sapiens)

>  <READOUT RELATION>
<

>  <NUMBER>
4.00

$$$$
>  <MOLECULE>
N=C(N)c1ccc(C2Cc3ccccc3B(O)O2)cc1OCc1cccnc1 (racemic)

>  <TESTED ON>
Urokinase-type plasminogen activator (Homo sapiens)

>  <READOUT RELATION>
=

>  <NUMBER>
4.30

$$$$

----------
- TESTED ON: Coagulation factor X (Homo sapiens, UniProt P00742)
- ASSAY DETAILS: Inhibition of recombinant human C-terminal 10-His-tagged factor Xa (L24 to K488 residues) expressed in baculovirus infected Sf21 insect cells using Mca-RPKPVE-Nval-WRK(Dnp)-NH2 as substrate incubated for 40 mins by FLINT assay
VALUE TYPE: IC50 (µM)

>  <COMPOUND>
N=C(N)c1ccc(C2Cc3ccccc3B(O)O2)cc1OCc1ccccc1Cl (racemic)

>  <VALUE TYPE>
IC50

>  <READOUT RELATION>
=

>  <NUMBER>
10

$$$$
>  <COMPOUND>
N=C(N)c1ccc(CC2OB(O)c3ccccc32)cc1OCc1cccnc1 (racemic)

>  <VALUE TYPE>
IC50

>  <READOUT RELATION>
>

>  <NUMBER>
100

$$$$
>  <COMPOUND>
N=C(N)c1ccc(C2Cc3ccc(C(F)(F)F)cc3B(O)O2)cc1OCc1cccnc1 (racemic)

>  <VALUE TYPE>
IC50

>  <READOUT RELATION>
=

>  <NUMBER>
1.58

$$$$
>  <COMPOUND>
Cc1ccc2c(c1)C(Cc1ccc(C(=N)N)c(OCc3cccnc3)c1)OB2O (racemic)

>  <VALUE TYPE>
IC50

>  <READOUT RELATION>
=

>  <NUMBER>
31.6

$$$$
>  <COMPOUND>
Cc1cccc2c1B(O)OC(c1ccc(C(=N)N)c(OCc3cccnc3)c1)C2 (racemic)

>  <VALUE TYPE>
IC50

>  <READOUT RELATION>
=

>  <NUMBER>
50.1

$$$$
>  <COMPOUND>
N=C(N)c1ccc(C2Cc3ccc(F)cc3B(O)O2)cc1OCc1cccnc1 (racemic)

>  <VALUE TYPE>
IC50

>  <READOUT RELATION>
=

>  <NUMBER>
63.1

$$$$
>  <COMPOUND>
Cl.N=C(N)c1ccc([C@H]2Cc3ccc(C(F)(F)F)cc3B(O)O2)cc1OCc1cccnc1

>  <VALUE TYPE>
IC50

>  <READOUT RELATION>
=

>  <NUMBER>
0.398

$$$$
>  <COMPOUND>
N=C(N)c1ccc(C2Cc3ccccc3B(O)O2)cc1OCc1cccnc1 (racemic)

>  <VALUE TYPE>
IC50

>  <READOUT RELATION>
=

>  <NUMBER>
7.94

$$$$
>  <COMPOUND>
N=C(N)c1ccc(CC2OB(O)c3ccc(F)cc32)cc1OCc1cccnc1 (racemic)

>  <VALUE TYPE>
IC50

>  <READOUT RELATION>
=

>  <NUMBER>
63.1

$$$$

# credit: ChEMBL document CHEMBL4396973
